Record form. Attribute: Growth Rate. Fill in for each entry.
# System: Fibroblast
# ASSAY_SUMMARY: Incucyte cell viability with human fibroblast; note: unitless GR value; below 1 slowed growth and below 0 cell loss
# Format: toxicity, cell-based
# APPLIED_CONDITIONS: 6 h, 10 µM, compound concentration 10 uM, replicate number 2
Give bare numbers.

Known Growth Rate results, listed for orientation:
CCCN1C(=O)c2ccc(Cl)cc2Nc2ncccc21 ... -0.63
COc1c(OCCCN2CCOCC2)ccc2c1N=C(NC(=O)c1cnc(N)nc1)N1CCN=C21 [COPANLISIB] ... -0.38
CCN1C(=O)c2cc(C)ccc2N(C)c2ncccc21 ... 0.79
Cc1cc(CN)cc(C)c1-c1ncn(C)c1-c1ccnc2cc(F)ccc12.Cl ... -0.26
O=C1COc2cc(C(=O)N(Cc3ccc(C(=O)Nc4ccncn4)cc3)C3CC3)ccc2N1 ... 0.55

Report Growth Rate for every entry below.
1. Nc1ncnc2c1ccn2[C@@H]1O[C@H]([C@@H](O)c2ccccc2)[C@@H](O)[C@H]1O
2. CC/C(=C(\c1ccc(O)cc1)c1ccc(OCCN(C)C)cc1)c1ccccc1 [AFIMOXIFENE]
3. CCOc1ccccc1C(=O)NCC1(N2CCN(CC)CC2)CCCCC1
4. COc1cc(N(C)c2ccnc3ccc(C(F)(F)F)cc23)cc(OC)c1OC
5. Cl.O=C(NCCN1CCC2(CC1)C(=O)NCN2c1cccc(F)c1)c1ccc2ccccc2c1
6. Cc1cccc([C@H]2CC[C@@H](N3CCN(c4cccnc4)CC3)CC2)c1.O=C(O)C(F)(F)F.O=C(O)C(F)(F)F
7. CN1CCC(F)(Cn2cnc(-c3ccc(F)cn3)c2-c2ccnc3[nH]ccc23)CC1
8. COc1ccc(C(F)(F)F)cc1NC(=O)Nc1ccc(Oc2cc(C)nc(N)n2)c2ccccc12

Completion:
[0.31, 0.4, -0.9, 0.41, -0.05, -0.32, 0.29, 0.32]

---

# Tested on: HEK-293T
# ASSAY_SUMMARY: Incucyte cell viability with HEK293T; note: unitless GR value; below 1 slowed growth and below 0 cell loss
# Type: toxicity, cell-based
# APPLIED_CONDITIONS: human, 0 h, 10 µM, compound concentration 10 uM, replicate number 2
Record form. Attribute: Growth Rate. Fill in for each entry.
Give bare numbers.

Report Growth Rate for every entry below.
1. O=C(O)c1ccc(-c2c[nH]c3ncc(-c4ccccc4)cc23)cc1C1CCCC1 [GSK-650394]
2. Cn1c(Nc2c(Cl)cccc2Cl)nc2ccc3nc[nH]c(=O)c3c21
3. CC(N)C1CCC(C(=O)Nc2ccncc2)CC1 (stereo not given)
4. CCOP(=O)(OCC)C(=Cc1cc(C(C)(C)C)c(O)c(C(C)(C)C)c1)P(=O)(OCC)OCC
5. C[C@@H](COCCC(=O)N1CCN(c2ncc(C(F)(F)F)cn2)CC1)Nc1cn[nH]c(=O)c1C(F)(F)F [ATAMPARIB]

Completion:
1: 0.55; 2: -1; 3: 0.58; 4: -0.99; 5: 0.81

---

# Tested on: HEK-293T
# ASSAY_SUMMARY: Incucyte cell viability with HEK293T; note: unitless GR value; below 1 slowed growth and below 0 cell loss
# Type: toxicity, cell-based
# APPLIED_CONDITIONS: human, 6 h, 10 µM, compound concentration 10 uM, replicate number 2
Hi! Could you tag entries with Growth Rate below -0.1 as y, and those at or above as n? Much appreciated.

Past entries and their recorded results:
CC(C)C[C@H](NC(=O)c1cc2ccccc2s1)C(=O)N1CCN(C(=O)[C@H](CO)NS(=O)(=O)c2ccc(Cl)cc2Cl)CC1 ... n
CN[C@@H]1CC[C@@H](c2ccc(Cl)c(Cl)c2)c2ccccc21.Cl ... y
S=c1[nH]nc(-c2cccs2)n1-c1ccccc1 ... n
C[C@@H]1C[C@H](N)C[C@H](c2ccncc2NC(=O)c2ccc(F)c(-c3c(F)cccc3F)n2)C1 ... n
CC(C)(O)c1ccc2c(c1)ncn2-c1cccc(-c2ccccc2C#N)c1 ... y

Prompt: Check if Growth Rate falls below -0.1 for "CC(C)n1cnc2c(Nc3cccc(Cl)c3)nc(N[C@H]3CCCC[C@@H]3N)nc21" .
Completion: y

Prompt: Check if Growth Rate falls below -0.1 for "O=C1Nc2ccc(I)cc2/C1=C/c1cc(Br)c(O)c(Br)c1" .
Completion: n

Prompt: Check if Growth Rate falls below -0.1 for "CC(=O)Nc1c(F)cc(C(=O)N[C@H]2CC[C@H](O)CC2)cc1O[C@@H](C)c1ccccc1" .
Completion: n

Prompt: Check if Growth Rate falls below -0.1 for "C=C(F)C(=O)N1CCN(c2nc(OC[C@@H]3CCCN3C)nc3c2CCN(c2cccc4cccc(Cl)c24)C3)C[C@@H]1CC#N" .
Completion: y

Prompt: Check if Growth Rate falls below -0.1 for "CNc1nc(Nc2ccc(C(=O)N3CCOCC3)cc2OC)nc2[nH]cc(Cl)c12" .
Completion: y

Prompt: Check if Growth Rate falls below -0.1 for "Cl.Clc1ccc(OC[C@H]2CCN2)cn1" .
Completion: n

Prompt: Check if Growth Rate falls below -0.1 for "Cc1nnsc1C(=O)Nc1ccc(-n2nc(C(F)(F)F)cc2C(F)(F)F)cc1" .
Completion: n

Prompt: Check if Growth Rate falls below -0.1 for "CCCS(=O)(=O)Nc1ccc(F)c(Nc2ncnc3cnc(-n4cnc(C)c4)nc23)c1F" .
Completion: n

Prompt: Check if Growth Rate falls below -0.1 for "O=C(CCCN1CCC(O)(c2ccc(Cl)cc2)CC1)c1ccc(F)cc1" .
Completion: n

Prompt: Check if Growth Rate falls below -0.1 for "COc1cc(C(=O)N2CC[C@@H](O)[C@@H](N)C2)cc2nc(-c3cc4ccccc4n3CC3CC3)n(C)c12.Cl" .
Completion: y

Prompt: Check if Growth Rate falls below -0.1 for "CC#CC(=O)N1CCN(c2nc(-c3ccc(Oc4ccccc4)cc3)c(C(N)=O)s2)CC1" .
Completion: n

Prompt: Check if Growth Rate falls below -0.1 for "OC(c1ccc(-c2ccc(CN3CCN(Cc4ccncc4)CC3)cc2)c(F)c1)(C(F)(F)F)C(F)(F)F" .
Completion: n

Prompt: Check if Growth Rate falls below -0.1 for "N[C@@H](CC(=O)O)Cn1nnc(-c2ccc(Oc3ncc(Cl)cc3F)cc2)n1" .
Completion: n

Prompt: Check if Growth Rate falls below -0.1 for "CN1C(=O)c2ccccc2N(C)c2nc(Nc3cnn(C4CCNCC4)c3)ncc21" .
Completion: y

---

Record form. Attribute: Growth Rate. Fill in for each entry.
# Test system: U2OS
# ASSAY_SUMMARY: Incucyte cell viability with U2OS; note: unitless GR value; below 1 slowed growth and below 0 cell loss
# Format: toxicity, cell-based
# APPLIED_CONDITIONS: human, 12 h, 10 µM, compound concentration 10 uM, replicate number 1

Cc1cc(-c2ccnc(Nc3cnn(C)c3)n2)ccc1CNC(=O)N1CC(OC(C)C)C1 ... 0.8
Cc1nc(-c2ccc(C(F)(F)F)cc2)sc1C(=O)NCc1ccc(OC(C)(C)C(=O)O)cc1 [GW590735] ... 0.91
CN1CCN(c2ccc(C(=O)Nc3n[nH]c4ccc(Cc5cc(F)cc(F)c5)cc34)c(NC3CCOCC3)c2)CC1 [ENTRECTINIB] ... -0.62

Prompt: Hello, I am looking for reported Growth Rate with U2OS for "CCC(=O)Nc1cc(Nc2cc(NC3CC3)n3ncc(C#N)c3n2)ccc1C" . Could you help?
Completion: 0.12

---

# System: HEK-293T
# ASSAY_SUMMARY: Incucyte cell viability with HEK293T; note: unitless GR value; below 1 slowed growth and below 0 cell loss
# Format: toxicity, cell-based
# APPLIED_CONDITIONS: human, 6 h, 10 µM, compound concentration 10 uM, replicate number 1
Record form. Attribute: Growth Rate. Fill in for each entry.
Answers are plain numbers.

Known Growth Rate results, listed for orientation:
Cc1cc(C(C#N)c2ccc(Cl)cc2)c(Cl)cc1NC(=O)c1cc(I)cc(I)c1O (stereo not given) [CLOSANTEL] ... 0.13
CC1(C)CC(CN2CCC(F)(CNC(=O)c3cc(Cl)cc(Cl)c3)CC2)CCO1 (stereo not given) ... 0.4
COc1cc(/C=C(\C#N)C(=O)Nc2nnc(C(F)(F)F)s2)ccc1OCc1ccc(C(F)(F)F)cc1C(F)(F)F ... 0.32
COc1ccc(COc2ccc(Cc3cnc(N)nc3N)cc2OC)cc1 [GW632580X] ... 0.7

As a next step, examine the molecule that follows.
Prompt: Hello, I am looking for reported Growth Rate with HEK-293T for CCCCCNC(=O)N1CCC(CN(Cc2ccc(Cl)cc2)Cc2ccc([N+](=O)[O-])s2)C1 (stereo not given) [SR9011] . Could you help?
Completion: 0.47

---

Record form. Attribute: Growth Rate. Fill in for each entry.
# System: HEK-293T
# ASSAY_SUMMARY: Incucyte cell viability with HEK293T; note: unitless GR value; below 1 slowed growth and below 0 cell loss
# Type: toxicity, cell-based
# APPLIED_CONDITIONS: human, 12 h, 10 µM, compound concentration 10 uM, replicate number 2
Numbers only.

Known Growth Rate results, listed for orientation:
CC(C)(C)c1ccc(NC(=O)N2CCN(c3ncccc3Cl)CC2)cc1 ... 0.06
CCNCCNC(=O)c1c(C)[nH]c(/C=C2\C(=O)Nc3ccc(F)cc32)c1C ... -0.09
CCOc1ccc(S(=O)(=O)Nc2ccc(Cl)cc2C#Cc2cnc(C(=O)[O-])cc2OC)c2ncccc12.[K+] ... 0.97
CN(CCCCCCC1=C(c2cc(F)cc(F)c2)CCCc2cc(O)ccc21)CCCCS(=O)(=O)CCCC(F)(F)F ... -0.83
O=C1NCCSc2c1sc1ccc(O)cc21 ... -0.26

Report Growth Rate for every entry below.
1. C=C1/C(=C\C=C2/CCC[C@]3(C)[C@@H]([C@H](C)CCCC(C)(C)O)CC[C@@H]23)C[C@@H](O)C[C@@H]1O
2. Cn1cc(NC(=O)c2ccc3nc4n(c3c2)CCCNC4=O)nc1C(=O)NC1CCCC1
3. COc1cc(N(C)c2ccnc3ccc(C(F)(F)F)cc23)cc(OC)c1OC

Completion:
1. 0.7
2. 0.88
3. 0.01
